Test system: M14 melanoma
protocol.description: NCI-60 one-dose screen, 48 h (100 = growth as untreated, 0 = no growth, -100 = all killed)
details: 10 µM unless noted
The panel holds about 83,000 compounds, 20% with a hit somewhere; the sample as a whole holds those more often.
Could you please report measured growth for the items listed next?
Value expressed in %; do not type the unit.

Problem: Fill in the blank: the reported growth of `O=[N+]([O-])c1c(Cl)ncnc1Cl` is ____.
Solution: 118

Problem: Same read-out for COC1OC(C(COC(C)=O)OC(C)=O)C(OC(C)=O)C(OC(C)=O)C1OC(C)=O (centres undefined) ?
Solution: 106

Problem: Same read-out for `Nc1nc(N)nc(N2CCCCC2)n1` ?
Solution: 111

Problem: Same read-out for `Cn1c2ccccc2c2nnc(NCCCCO)nc21` ?
Solution: 88

Problem: Same read-out for `CC(=O)Oc1c(Cl)cccc1-c1ccccc1` ?
Solution: 108

Problem: Same read-out for `NNC(=O)c1ccccc1N` ?
Solution: 106

Problem: Same read-out for `Nc1ccc(F)cc1F` ?
Solution: 101

Problem: Same read-out for `Cn1/c(=N\N=C\c2ccccc2OCCO)sc2ccccc21` ?
Solution: 103

Problem: Same read-out for `COc1cc(C(=O)O)c(O)c(C(C)(C)C)c1` ?
Solution: 105

Problem: Same read-out for `C=CCS(C)(=O)=O` ?
Solution: 95.8

Problem: Same read-out for `Cc1[nH]c(=S)[nH]c(=O)c1C` ?
Solution: 109

Problem: Same read-out for `CCOC(OCC)C(=O)c1ccccc1` ?
Solution: 101

Problem: Same read-out for `CCOC(=O)c1ccc(NC(=O)Nc2nccs2)cc1` ?
Solution: 4.57

Problem: Same read-out for `CCCCCC#CC(=O)O` ?
Solution: 120

---

Test system: NCI-H322M lung
protocol.description: NCI-60 one-dose screen, 48 h
details: 10 µM unless noted
Compounds without any hit were thinned out: in the full panel of roughly 83,000, 20% have a hit. The source made the active and inactive calls. Rule for the calls: active = growth percent below 10; inactive = the rest.
Return exactly one item of active, inactive

Problem: Can you look up the reported call for `CCCCCCCCCCCCCCCCCCSC(=N)N` for me?
Solution: inactive

Problem: Same read-out for `C[C@H](CCC[C@H](C)OS(=O)(=O)c1ccccc1)OS(=O)(=O)c1ccccc1` ?
Solution: inactive

Problem: Same read-out for `O=C(O)c1cccc(-n2ncc(Cl)c(Cl)c2=O)c1` ?
Solution: inactive

Problem: Same read-out for `O=C(Nc1cccc(Cl)c1)c1ccc(Cl)cc1Cl` ?
Solution: inactive

Problem: Same read-out for `Cc1cc(Cc2ccccc2)c(O)c(Cc2ccccc2)c1` ?
Solution: inactive

Problem: Same read-out for `Nc1cc2c(cc1Cl)C(=O)c1ccccc1C2=O` ?
Solution: inactive

Problem: Same read-out for `O=C(O)c1cc(I)ccc1O` ?
Solution: inactive

Problem: Same read-out for `N#C/C(=C\c1ccc(C#N)cc1)C(=O)c1ccccc1` ?
Solution: inactive

Problem: Same read-out for `CCNc1ncnc2[nH]ncc12` ?
Solution: inactive

Problem: Same read-out for CC(C)C1CCC(C)C(O)C1 (stereo not drawn) ?
Solution: inactive

Problem: Same read-out for CC(C)OCC(CCl)OC(=O)Nc1ccccc1 (stereo not drawn) ?
Solution: inactive

Problem: Same read-out for C=CC(=O)OC1CCC(C(C)(C)CC)CC1 (stereo not drawn) ?
Solution: inactive

Problem: Same read-out for `CCCCCC/C=C\CCCCCCCCCc1cc(O)cc(OC)c1O` ?
Solution: active

---

Test system: NCI-H460 lung
protocol.description: NCI-60 one-dose screen, 48 h (100 = growth as untreated, 0 = no growth, -100 = all killed)
details: 10 µM unless noted
Method: Growth inhibition of the NCI-H460 human Non-Small Cell Lung tumor cell line is measured as a screen for anti-cancer activity. Cells are grown in 96 well plates and exposed to the test compound for 48 hours. Compounds are tested at a single concentration, which is 10^-5 M for most compounds. The reported endpoint is percent growth (GI% or GIPRCNT), where numbers from 0 - 100% represent growth inhibition, and numbers from -100% - 0 represent cell death. […]
About 83,000 compounds went through this panel and 20% of them were active in at least one assay; those are over-represented in the sample as a whole.
Could you please report measured growth for the items listed next?
Value expressed in %; do not type the unit.

Problem: Fill in the blank: the reported growth of O=C1C=C(c2ccccc2)C(O)(c2ccccc2)C1 (stereo not drawn) is ____.
Solution: 110

Problem: Same read-out for CC1(C)OC2C(CO)OC(n3ccc(=O)[nH]c3=O)C2O1 (stereo not drawn) ?
Solution: 100

Problem: Same read-out for `CCN(C(=O)Nc1ccccc1Cl)c1ccccc1` ?
Solution: 108

Problem: Same read-out for O=C(O)C1CSC(c2ccccc2)N1 (stereo not drawn) ?
Solution: 98.5

Problem: Same read-out for `Nc1ccc(F)c(Cl)c1F` ?
Solution: 101

Problem: Same read-out for COC(c1ccc2c(c1)OCO2)C(C)Br (stereo not drawn) ?
Solution: 104

Problem: Same read-out for `c1ccc(Nc2ccccn2)nc1` ?
Solution: 96.5

Problem: Same read-out for `CCOC(=O)c1cc(C)[nH]c(=O)c1C#N` ?
Solution: 114

Problem: Same read-out for `O=C(N/N=C\c1ccc(Cl)cc1Cl)c1ccncc1` ?
Solution: 105

Problem: Same read-out for `O=[N+]([O-])c1c(Cl)ncnc1Cl` ?
Solution: 93.2

Problem: Same read-out for `CCOC(=O)/C(C)=C\c1ccc(OC)c(OC)c1` ?
Solution: 102

Problem: Same read-out for `O=S(=O)(c1ccc(NC(=S)NCc2cccnc2)cc1)N1CCCCC1` ?
Solution: 63

Problem: Same read-out for `COc1ccc(-c2csc(NC(=O)Nc3nc(-c4ccc(OC)cc4)cs3)n2)cc1` ?
Solution: 84.7

---

Tested on: COLO 205 colon
protocol.description: NCI-60 one-dose screen, 48 h (100 = growth as untreated, 0 = no growth, -100 = all killed)
details: 10 µM unless noted
The panel holds about 83,000 compounds, 20% with a hit somewhere; the sample as a whole holds those more often.
Could you please report measured growth for the items listed next?
Value expressed in %; do not type the unit.

Problem: Fill in the blank: the reported growth of ClCC(Cl)[C@@H]1CC2C=CC1C2 (stereo partly drawn) is ____.
Solution: 127

Problem: Same read-out for `C[C@H](CCC[C@H](C)OS(=O)(=O)c1ccccc1)OS(=O)(=O)c1ccccc1` ?
Solution: 115

Problem: Same read-out for `COC(=O)Cc1cc(COC(C)=O)ccc1C` ?
Solution: 120

Problem: Same read-out for CC1CN(CCO)CC(C)O1 (stereo not drawn) ?
Solution: 117

Problem: Same read-out for `O=C(NCc1ccccc1)/C(=C/c1ccccc1)NC(=O)c1ccccc1` ?
Solution: 110

Problem: Same read-out for `Cc1nc(C)c(C(=O)O)cc1C(=O)O` ?
Solution: 131

Problem: Same read-out for `NC(=S)N/N=C/c1ccc(OC(=O)COc2ccccc2)cn1` ?
Solution: 85.9

Problem: Same read-out for `NC(=S)N/N=C/c1ccc(Cl)cc1` ?
Solution: 131

Problem: Same read-out for Nc1ccn(C2CC(N)C(CO)O2)c(=O)n1 (stereo not drawn) ?
Solution: 97.7

Problem: Same read-out for `CCCCNc1ccc(-c2ccc(NCCCC)cc2)cc1` ?
Solution: 111

Problem: Same read-out for `CC(C)c1ncc([N+](=O)[O-])n1C` ?
Solution: 108

Problem: Same read-out for `CCOP(=O)(OCC)/C(=C\N1C(=O)CC(=O)NC1=S)C(=O)OC` ?
Solution: 99.5

Problem: Same read-out for CC(=O)NC(CCC(=O)c1ccccc1)C(=O)O (stereo not drawn) ?
Solution: 108

Problem: Same read-out for CC(=O)OCC1OC(n2cnc3c(=S)nc(N)[nH]c32)C(OC(C)=O)C1OC(C)=O (stereo not drawn) ?
Solution: 120

Problem: Same read-out for `O=C(Nc1ccc([N+](=O)[O-])cc1)C(=O)Nc1ccc([N+](=O)[O-])cc1` ?
Solution: 101

Problem: Same read-out for `S=C=Nc1ccc2ccccc2c1` ?
Solution: 111

Problem: Same read-out for `CC1(C)OC(=O)CC1=O` ?
Solution: 99.6

Problem: Same read-out for `Nc1cc2ccccc2c(O)c1O` ?
Solution: 56.5

Problem: Same read-out for `CCN(CC)CCN1CNC(=S)NC1` ?
Solution: 106

Problem: Same read-out for `O=C(Nc1c(Cl)cc(Cl)cc1Cl)ON=C1CCCCC1` ?
Solution: 126

Problem: Same read-out for `CC(=O)N(C(C)=O)c1ccc(C)cc1` ?
Solution: 119

Problem: Same read-out for `NC(=O)N1CCOCC1` ?
Solution: 113

Problem: Same read-out for `COc1cc(N)c2ncccc2c1Cl` ?
Solution: 116

Problem: Same read-out for `CC(=O)Nc1ccc(C(=O)c2ccc(S(=O)(=O)Nc3ccccc3)cc2)cc1` ?
Solution: 92.4

Problem: Same read-out for `CN(CCCN(C)CCC1CCCCC1)CCC1CCCCC1` ?
Solution: -81

Problem: Same read-out for `CCCc1cccc(CCC)c1NC(=O)Nc1cc(Cl)cc(Cl)c1` ?
Solution: 120

Problem: Same read-out for `Cn1c(=O)[nH]c2ccccc2c1=O` ?
Solution: 114

Problem: Same read-out for `C=C(C)COc1ccc(C(C)(C)C)cc1` ?
Solution: 104
